Reference source: ChEMBL document CHEMBL2057189

# System: Atropa belladonna
# ASSAY DETAILS: Inhibition of Atropa belladonna recombinant hycosamine 6beta-hydroxylase expressed in Escherichia coli using hyoscyamine as substrate assessed as inhibition of hydroxylated product formation at 0.1 mM after 1 hr by HPLC analysis
The source made the active and inactive calls. No cut-off for these calls is given here.
READOUT TYPE: inhibition

INSERT INTO results (compound, experimental_system, readout_type, observed) VALUES
  ('CN1CCC(OC(=O)Cc2ccccc2)CC1', 'Atropa belladonna', 'inhibition', 'inactive'),
  ('CN1C2CC[C@@H]1C[C@H](OC(=O)CCc1ccccc1)C2 (single isomer, unassigned)', 'Atropa belladonna', 'inhibition', 'inactive'),
  ('O=C(Cc1ccccc1)O[C@@H]1CC2CC[C@H](C1)O2 (single isomer, unassigned)', 'Atropa belladonna', 'inhibition', 'inactive'),
  ('C[N+]1(C)C2C[C@H](OC(=O)[C@H](CO)c3ccccc3)C[C@@H]1[C@H]1OC21 (single isomer, unassigned)', 'Atropa belladonna', 'inhibition', '7%');
